- target desc: T1, recombinant human CD73 protein (human, UniProt P21589 27-547)
- T1 construct: Bought soluble protein; The background says that CD73 forms a homodimer; also called soluble CD73; free CD73 protein
- T1 sequence (looked up): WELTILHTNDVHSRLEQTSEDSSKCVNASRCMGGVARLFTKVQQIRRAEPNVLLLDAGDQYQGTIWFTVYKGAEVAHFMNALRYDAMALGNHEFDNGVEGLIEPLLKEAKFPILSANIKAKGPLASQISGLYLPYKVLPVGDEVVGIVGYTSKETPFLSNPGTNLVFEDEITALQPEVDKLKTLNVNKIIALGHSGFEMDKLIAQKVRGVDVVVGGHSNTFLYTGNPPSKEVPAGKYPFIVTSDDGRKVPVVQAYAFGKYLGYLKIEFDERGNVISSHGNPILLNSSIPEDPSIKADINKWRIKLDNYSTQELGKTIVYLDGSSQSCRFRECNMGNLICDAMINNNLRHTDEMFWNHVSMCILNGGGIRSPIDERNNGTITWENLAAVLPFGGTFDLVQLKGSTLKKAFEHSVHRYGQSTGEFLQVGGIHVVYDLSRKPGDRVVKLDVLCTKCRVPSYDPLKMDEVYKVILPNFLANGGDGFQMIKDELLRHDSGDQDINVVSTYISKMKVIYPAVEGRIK
- test summary: BLI (Fortebio), human CD73 on HIS1K biosensors, antibody as analyte
reported metric: Kd (nM)
Answers are plain numbers, in nM.

// sample Hab7C3C2.5 (antibody, human IgG1, kappa, L234A L235A, V domains shown, Humanized 7C3C2; also called Hab7C3C.5) VH: QVQLVQSGAEVKKPGASVKVSCKASGYTFTSYDINWVRQATGQGLEWIGWIYPRDGFTKYNEKFKGRVTLTVNTSISTAYMELSSLRSEDTAVYYCARKEGYRGDWYFDVWGQGTTVTVSS VL: DIQMTQSPSSLSASVGDRVTITCRASGNVHNYLAWYQQKPGKAPKLLLYNAKTLASGVPSRFSGSGSGTDYTLTISSLQPEDFATYYCQHFWSTPWTFGGGTELEIKR , its Kd was 0.765

Values from patent US20260152567A1
